Data provenance is PubChem BioAssay AID1963863.

System: 931267-113-T-J1-PDC KRAS spheroid with HUVEC/MSC, viability;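 further: compound exposure lasted 7 days before the readout; 100% = DMSO vehicle control viability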
assay_remarks: Anticancer human tumor 931267-113-T-J1-PDC patient-derived colon adenocarcinoma cell line growth inhibition [KRAS2]
test_settings: second compound 3.16 µM; first compound 10 µM; hits give low values
Catalogue of viability, T/C values
Kindly provide the numeric value in % only, without the unit symbol.

Example entries and their recorded answers appear below.
Cn1nccc1Nc1nccc(-c2cc3c(s2)C(C)(C)N(CCN2CCOCC2)C3=O)n1 + CC1OCC2(CCN(c3cnc(Sc4ccnc(N)c4Cl)c(N)n3)CC2)C1N | 2.71
COc1cc2nccc(Oc3ccc(NC(=O)C4(C(=O)Nc5ccc(F)cc5)CC4)cc3)c2cc1OC + CNCc1ccccc1-c1csc(C(C)Nc2nc(C)nc3cc(OC)c(OC)cc23)c1 | 0.2
Cn1nccc1Nc1nccc(-c2cc3c(s2)C(C)(C)N(CCN2CCOCC2)C3=O)n1 + C=CC(=O)N1CCN(c2nc(OCC3CCCN3C)nc3c2CCN(c2cccc4cccc(C)c24)C3)CC1CC#N | 0.22
O=C(c1cc(Cc2n[nH]c(=O)c3ccccc23)ccc1F)N1CCN(C(=O)C2CC2)CC1 + C=CC(=O)N1CCN(c2nc(=O)n(-c3c(C)ccnc3C(C)C)c3nc(-c4c(O)cccc4F)c(F)cc23)C(C)C1 | 112
COc1cc2nccc(Oc3ccc(NC(=O)C4(C(=O)Nc5ccc(F)cc5)CC4)cc3)c2cc1OC + COc1cc2nc(C)nc(NC(C)c3cc(N)cc(C(F)(F)F)c3)c2cc1OC1CCOC1 | 0.2

API: the following record is the query input.
Prompt line: Which measured viability, T/C value corresponds to CC1OCC2(CCN(c3cnc(Sc4ccnc(N)c4Cl)c(N)n3)CC2)C1N (stereo unspecified) + CNCc1ccccc1-c1csc(C(C)Nc2nc(C)nc3cc(OC)c(OC)cc23)c1 ?
Response line: 0.17
